Hey, just so you know, these numbers are from the RNAGym collection of RNA variant scans (doi:10.7554/elife.80360).

B1: HDV Ribozyme (parent)
chain: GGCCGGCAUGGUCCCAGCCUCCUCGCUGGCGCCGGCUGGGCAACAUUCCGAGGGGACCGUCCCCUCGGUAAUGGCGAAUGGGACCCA

# Variants of: B1
# assay-overview: self-cleavage, relative activity (ratio to wild type); higher = more cleavage; co-transcriptional
assay-endpoint: self-cleavage
Reply briefly: the number, and no unit.

G6A U20C :: 0.158
C24U G59U :: 0.736

Please look at the following variant next.
Exam item: # query: self-cleavage of entry A45G A71U
Marked response: 0.997
